# assayed_target: Relipidated TF (Tissue Factor) (UniProt P13726 33-295, limits assumed)
# assay_name: cell-based or functional assay
readout_type: Lag Time [min], Ab 50 nM (min)
Numeric only. Scale: min

>  <binder>
5G9 (humanized TF8-5G9, CNTO 860) (antibody, V domains shown) VH: QVQLVESGGGVVQPGRSLRLSCKASGFNIKDYYMHWVRQAPGKGLEWIGLIDPENGNTIYDPKFQGRFTISADNSKNTLFLQMDSLRPEDTAVYYCARDNSYYFDYWGQGTPVTVSS VL: DIQMTQSPSSLSASVGDRVTITCKASQDIRKYLNWYQQKPGKAPKLLIYYATSLADGVPSRFSGSGSGTDYTFTISSLQPEDIATYYCLQHGESPYTFGQGTKLEIT

>  <Lag Time [min], Ab 50 nM [min]>
25.1

$$$$
>  <binder>
39A (antibody, human IgG1, V domains shown) VH: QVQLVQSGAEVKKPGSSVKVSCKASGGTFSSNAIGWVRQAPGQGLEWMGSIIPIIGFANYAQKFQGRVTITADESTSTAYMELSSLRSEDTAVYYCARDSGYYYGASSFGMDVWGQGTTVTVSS VL: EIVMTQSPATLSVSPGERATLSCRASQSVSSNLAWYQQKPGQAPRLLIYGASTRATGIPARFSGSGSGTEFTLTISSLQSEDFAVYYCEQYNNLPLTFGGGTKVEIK

>  <Lag Time [min], Ab 50 nM [min]>
29.8

$$$$
>  <binder>
25A (antibody, human IgG1, V domains shown) VH: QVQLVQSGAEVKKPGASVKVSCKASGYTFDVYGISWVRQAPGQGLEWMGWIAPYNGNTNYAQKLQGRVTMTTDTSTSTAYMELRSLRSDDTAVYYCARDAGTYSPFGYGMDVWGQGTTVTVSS VL: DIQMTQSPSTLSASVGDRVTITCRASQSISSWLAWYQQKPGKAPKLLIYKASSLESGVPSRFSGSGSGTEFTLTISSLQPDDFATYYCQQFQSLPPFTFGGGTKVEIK

>  <Lag Time [min], Ab 50 nM [min]>
5.2

$$$$

Consider the record given below.
[in] State the recorded Lag Time [min], Ab 50 nM for this entry: TF-011 (antibody, V domains shown) VH: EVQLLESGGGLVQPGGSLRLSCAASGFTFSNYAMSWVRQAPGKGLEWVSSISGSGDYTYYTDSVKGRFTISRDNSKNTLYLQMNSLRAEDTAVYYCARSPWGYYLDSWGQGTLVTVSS VL: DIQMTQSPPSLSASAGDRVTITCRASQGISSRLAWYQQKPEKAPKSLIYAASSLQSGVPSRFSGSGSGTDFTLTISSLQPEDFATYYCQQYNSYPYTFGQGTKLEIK
[out] 21.3
